- System: pigweed (Amaranthus retroflexus)
- Test: Test B postemergence
- Type: in vivo
- Measurement context: Rate 125 g/ha, scale 0 (no effect) to 100 (complete control), 13 to 15 days
Documented Plant response rating, Pigweed across a set of compounds

{"columns": ["Compound", "Plant response rating, Pigweed"],
 "data": [
  ["CC(C)(C)c1ccn(C2SCN(c3cccc(C(F)(F)F)c3)C2=O)n1 (stereo not drawn) [Compound 1]", 90],
  ["CC(C)(C)c1ccn(C2CCN(c3ccc(F)c(Cl)c3)C2=O)n1 (stereo not drawn) [Compound 46]", 0],
  ["CC(C)(C)c1ccn(C2CCN(c3cccc(OC(F)F)c3)C2=O)n1 (stereo not drawn) [Compound 76]", 30],
  ["O=C1C(n2ccc(C3CC3)n2)CCN1c1cccc(C(F)(F)F)c1 (stereo not drawn) [Compound 8]", 0],
  ["O=C1C(n2ccc(C3CCC3)n2)SCN1c1cccc(OC(F)(F)F)c1 (stereo not drawn) [Compound 38]", 60],
  ["Cc1ccc(N2CCC(n3ccc(C(C)(C)C)n3)C2=O)cc1Cl (stereo not drawn) [Compound 41]", 0],
  ["Cc1c(Cl)cc(N2CCC(n3ccc(C(C)(C)C)n3)C2=O)cc1Cl (stereo not drawn) [Compound 74]", 80],
  ["CC(C)(C)c1ccn(C2C(=O)N(c3cccc(C(F)(F)F)c3)C[S+]2[O-])n1 (stereo not drawn) [Compound 29]", 30],
  ["CCC(CC)c1ccn(C2SCN(c3cccc(C(F)(F)F)c3)C2=O)n1 (stereo not drawn) [Compound 25]", 70]
]}

---

- Test system: smallflower flatsedge (Cyperus difformis)
- Test: Test C flooded paddy test
- Type: in vivo
- Measurement context: flooded paddy test, Rate 125 g/ha; scale 0 to 100 (0 no effect, 100 complete control)
Documented Plant response rating, Flatsedge across a set of compounds

{"columns": ["Compound", "Plant response rating, Flatsedge"],
 "data": [
  ["CC(C)(C)c1ccn(C2CCN(c3ccc(F)c(C(F)(F)F)c3)C2=O)n1 (stereo not drawn) [Compound 146]", 95],
  ["CC(C)(C)c1ccn(C2CCN(c3ccc(F)c(Br)c3)C2=O)n1 (stereo not drawn) [Compound 75]", 90],
  ["COC(=O)c1cccc(N2CCC(n3ccc(C(C)(C)C)n3)C2=O)c1 (stereo not drawn) [Compound 73]", 100],
  ["CC(C)(C)c1ccn(C2CCN(c3cccc(I)c3)C2=O)n1 (stereo not drawn) [Compound 88]", 90],
  ["CC(C)Oc1cccc(N2CCC(n3ccc(C(C)C)n3)C2=O)c1 (stereo not drawn) [Compound 82]", 90],
  ["CC(C)c1ccn(C2OCN(c3cccc(OC(F)(F)F)c3)C2=O)n1 (stereo not drawn) [Compound 65]", 100],
  ["CCC(C)c1ccn(C2CCN(c3ccc(Br)c(OC)c3)C2=O)n1 (stereo not drawn) [Compound 142]", 95],
  ["COc1cc(C)nc(N2CCC(n3ccc(C(C)(C)C)n3)C2=O)n1 (stereo not drawn) [Compound 137]", 0],
  ["O=C1C(n2ccc(C3CCC3)n2)SCN1c1cccc(OC(F)F)c1 (stereo not drawn) [Compound 45]", 100]
]}

---

- System: crabgrass (Digitaria sanguinalis)
- Test: Test C postemergence
- Format: in vivo
- Measurement context: Rate 500 g/ha, scale 0 to 100 (0 no effect, 100 complete control)

{"columns": ["Molecule", "Plant response rating, Crabgrass"],
 "data": [
  ["CCC(CC)c1ccn(C2SCN(c3cccc(C(F)(F)F)c3)C2=O)n1 (stereo not shown) [Compound 25]", 90],
  ["COc1cc(N2CCC(n3ccc(C(C)C)n3)C2=O)ccc1C (stereo not shown) [Compound 85]", 70],
  ["O=C1C(n2ccc(C3CCC3)n2)SCN1c1cccc(OC(F)(F)F)c1 (stereo not shown) [Compound 38]", 30],
  ["CCC(CC)c1ccn(C2OCN(c3cccc(OC(F)(F)F)c3)C2=O)n1 (stereo not shown) [Compound 68]", 60],
  ["CCCC(C)c1ccn(C2OCN(c3cccc(OC(F)(F)F)c3)C2=O)n1 (stereo not shown) [Compound 91]", 60],
  ["CCCOc1cc(N2CCC(n3ccc(C(C)(C)C)n3)C2=O)ccc1C (stereo not shown) [Compound 107]", 20],
  ["CCC(CC)c1ccn(C2OCN(c3cccc(OC(F)F)c3)C2=O)n1 (stereo not shown) [Compound 131]", 90]
]}

---

- System: pigweed (Amaranthus retroflexus)
- Test: Test C preemergence
- Assay type: in vivo
- Measurement context: Preemergence; Rate 500 g/ha; scale 0 to 100
Documented Plant response rating, Pigweed across a set of compounds

{"columns": ["Compound", "Test system", "Plant response rating, Pigweed"],
 "data": [
  ["CCC(C)c1ccn(C2SCN(c3cccc(OC(F)(F)F)c3)C2=O)n1 (stereo not drawn) [Compound 32]", "pigweed (Amaranthus retroflexus)", 80],
  ["O=C1C(n2ccc(C3CCCCC3)n2)SCN1c1cccc(C(F)(F)F)c1 (stereo not drawn) [Compound 52]", "pigweed (Amaranthus retroflexus)", 100],
  ["CC(C)c1ccn(C2SCN(c3cccc(OC(F)F)c3)C2=O)n1 (stereo not drawn) [Compound 44]", "pigweed (Amaranthus retroflexus)", 100],
  ["O=C1C(n2ccc(C3CCC3)n2)SCN1c1cccc(OC(F)F)c1 (stereo not drawn) [Compound 45]", "pigweed (Amaranthus retroflexus)", 30],
  ["O=C1C(n2ccc(C3CCC3)n2)SCN1c1cccc(OC(F)(F)F)c1 (stereo not drawn) [Compound 38]", "pigweed (Amaranthus retroflexus)", 30],
  ["O=C1C(n2ccc(C3CC3)n2)CCN1c1cccc(C(F)(F)F)c1 (stereo not drawn) [Compound 8]", "pigweed (Amaranthus retroflexus)", 100],
  ["CC(C)(C)c1ccn(C2CCN(c3cccc(Br)c3)C2=O)n1 (stereo not drawn) [Compound 33]", "pigweed (Amaranthus retroflexus)", 100],
  ["CCC(C)c1ccn(C2SCN(c3cccc(C(F)(F)F)c3)C2=O)n1 (stereo not drawn) [Compound 20]", "pigweed (Amaranthus retroflexus)", 60],
  ["CC(C)(C)c1ccn(C2CCN(c3cccc(OC(F)(F)F)c3)C2=O)n1 (stereo not drawn) [Compound 49]", "pigweed (Amaranthus retroflexus)", 100]
]}

---

- Test system: Sunflower
- Test: Test C preemergence
- Format: in vivo
- Measurement context: Rate 250 g/ha, scale 0 to 100, 0 no effect, 100 complete control
Assign labels as follows, please: Criterion met for Plant response rating, Sunflower below 20; Criterion not met for Plant response rating, Sunflower equal to or exceeding 20.

{"columns": ["Compound", "Label class"],
 "data": [
  ["CCC(C)c1ccn(C2CCN(c3ccc(Br)c(OC)c3)C2=O)n1 (stereo not drawn) [Compound 142]", "Criterion not met"],
  ["CCC(CC)c1ccn(C2CCN(c3cccc(OC(C)C)c3)C2=O)n1 (stereo not drawn) [Compound 84]", "Criterion not met"],
  ["COc1cc(N2CCC(n3ccc(C(C)C)n3)C2=O)ccc1Cl (stereo not drawn) [Compound 120]", "Criterion not met"],
  ["CCC(C)c1ccn(C2CCN(c3ccc(F)c(C(F)(F)F)c3)C2=O)n1 (stereo not drawn) [Compound 145]", "Criterion not met"],
  ["CC(C)c1cccc(N2CCC(n3ccc(C(C)(C)C)n3)C2=O)c1 (stereo not drawn) [Compound 111]", "Criterion met"],
  ["Cc1ccc(N2CCC(n3ccc(C(C)(C)C)n3)C2=O)cc1I (stereo not drawn) [Compound 122]", "Criterion met"],
  ["Cc1ccc(N2CCC(n3ccc(C(C)(C)C)n3)C2=O)cc1OC(F)F (stereo not drawn) [Compound 79]", "Criterion not met"],
  ["CCCC(C)c1ccn(C2CCN(c3cccc(C(F)(F)F)c3)C2=O)n1 (stereo not drawn) [Compound 100]", "Criterion met"]
]}

---

- Tested on: barnyardgrass (Echinochloa crus-galli)
- Test: Test B preemergence
- Type: in vivo
- Measurement context: preemergence; Rate 125 g/ha; scale 0 to 100, 0 no effect, 100 complete control
Documented Plant response rating, Barnyardgrass across a set of compounds

{"columns": ["Compound", "Plant response rating, Barnyardgrass"],
 "data": [
  ["CC(C)(C)c1ccn(C2CCN(c3ccc(Cl)c(Cl)c3)C2=O)n1 (stereo not drawn)", 0],
  ["O=C1C(n2ccc(C3CCC3)n2)SCN1c1cccc(OC(F)F)c1 (stereo not drawn)", 80],
  ["Cc1ccc(N2CCC(n3ccc(C(C)(C)C)n3)C2=O)cc1Br (stereo not drawn)", 0],
  ["CC1CCc2cn(C3CCN(c4cccc(C(F)(F)F)c4)C3=O)nc21 (stereo not drawn)", 0],
  ["O=C1C(n2cccn2)SCN1c1cccc(C(F)(F)F)c1 (stereo not drawn)", 0],
  ["O=C1C(n2ccc(C3CCC3)n2)SCN1c1cccc(OC(F)(F)F)c1 (stereo not drawn)", 70],
  ["CC(C)(C)c1ccn(C2C(=O)N(c3cccc(C(F)(F)F)c3)C[S+]2[O-])n1 (stereo not drawn)", 0],
  ["CC(C)(C)c1ccn(C2CCN(c3cccc(Br)c3)C2=O)n1 (stereo not drawn)", 30],
  ["CC(C)(C)c1ccn(C2SCN(c3cccc(C(F)(F)F)c3)C2=O)n1 (stereo not drawn)", 50]
]}

This collection of values is drawn from patent US7138361B2.
